Test system: Plasmodium falciparum
testSummary: GSK_TCMDC: Inhibition of Plasmodium falciparum Dd2 in whole red blood cells, using parasite LDH activity as an index of growth. Test compounds present at 2uM
Format: functional
Kindly return TRUE if reported Inhibition is no lower than 60%; return FALSE if it is lower.

Clc1ncccc1-c1nc(NCCC(c2ccccc2)c2ccccc2)no1 :: TRUE
CC(C)(C)c1nn(-c2ccccc2)c2[nH]c(=O)c(CNC3CCCC3)cc12 :: TRUE
COc1ccc(CCN2CCC(NCc3cccc(N(C)C)c3)CC2)cc1 :: FALSE
CC(=O)Nc1ccc(CN2CCC(NC(=O)c3ccc(-c4ccc(N(C)C)cc4)s3)CC2)cc1.O=C(O)C(F)(F)F :: FALSE
CC(C)CNC(=O)c1cncc(-c2cccc(CNC3Cc4ccccc4C3)c2)c1.O=C(O)C(F)(F)F :: FALSE
Cc1ccc(O)c(CN2CCCC(COC(c3ccc(F)cc3)c3ccc(F)cc3)C2)c1 (centres undefined) :: TRUE
O=C(Nc1cccc(-c2nc3ccccc3[nH]2)c1)c1ccc(-c2cccc([N+](=O)[O-])c2)o1 :: FALSE
Cc1cc(CNC(=O)c2ccc(-c3ccc(-c4nc5cc(C(F)(F)F)ccc5[nH]4)s3)cc2)on1 :: FALSE

stdin: Check the entry `COc1ccc2[nH]ccc(=NN=Cc3ccc(Cl)cc3)c2c1` : does Inhibition equal or exceed 60%?
stdout: TRUE

---

Test system: Plasmodium falciparum
testSummary: GSK_TCMDC: Inhibition of Plasmodium falciparum 3D7 in whole red blood cells, using parasite LDH activity as an index of growth. Test compounds present at 2uM
Format: functional
measurementKind: Inhibition (%)
Give just the number in %; leave the unit off.

Record excerpt, results attached:
c1ccc(-c2csc(Nc3nc4cc5c(cc4s3)OCO5)n2)nc1 :: 81
Cc1nc(-c2cccc(NCc3ccccc3)c2)[nH]c1C.Cl :: 100
CCCC(C)Nc1nc(C)cc(N[C@@H](Cc2ccccc2)C(=O)NCc2cccc(F)c2)n1.O=C(O)C(F)(F)F (stereo not given in full) :: 100
CCOc1c(CNCCCNc2cc(O)c3ccccc3n2)cc(I)cc1OC :: 91

Continue with the next compound.
stdin: Requested read-out Inhibition, target or system Plasmodium falciparum, entry `CCOC(=O)c1nc(-c2ccccc2)[nH]c1-n1nc(C)cc1C`
stdout: 92

---

Reported values of Inhibition for individual entries
Test system: Plasmodium falciparum
testSummary: GSK_TCMDC: Inhibition of Plasmodium falciparum Dd2 in whole red blood cells, using parasite LDH activity as an index of growth. Test compounds present at 2uM
Assay type: functional
Write down the numeric answer in % and omit the unit.

Below, each entry is followed by its recorded Inhibition result.
FC(F)(F)c1ccc2[nH]c(-c3cccc(-c4cccc(CN5CCN(c6ccncc6)CC5)c4)c3)nc2c1.O=C(O)C(F)(F)F :: 99
CCCCSc1c(CNCCCCCCNCc2ccc3ccccc3c2SCCCC)ccc2ccccc12.CS(=O)(=O)O :: 62
O=[N+]([O-])c1cccc(Nc2cncc(-c3ccc(CO)cc3)c2)c1 :: 96

stdin: Please look up its Inhibition: `O=C(NCc1ccc(Cl)c(Cl)c1)c1ccc(-c2nc3ccc(Cl)cc3[nH]2)cc1`
stdout: 22

stdin: Repeat with `O=C(NCC1CC1)C1CCN(C(c2ccc(Cl)cc2)c2ccc(Cl)cc2)CC1`
stdout: 95

---

Tested on: HepG2
testSummary: GSK_TCMDC: Percent inhibition of human HepG2 cell line. Test compounds present at 10uM.
Format: functional
measurementKind: Inhibition (%)
Numbers only here, please. The scale is %.

COc1ccc(CN(C)CCCOc2ccc(NC(=O)C=Cc3ccc(C(C)(C)C)cc3)cc2)cc1OC :: 14
C=CCOC(=O)N1CCC(CNCc2cccc(-c3ccc(-c4nc5cc(C(F)(F)F)ccc5[nH]4)cc3)c2)C1.O=C(O)C(F)(F)F (stereo not drawn) :: 28
O=C(Nc1ccc(-c2cccc(-c3nc4cc(C(F)(F)F)ccc4[nH]3)c2)cc1)c1csnn1 :: 42
O=C(NC(Nc1ccc([N+](=O)[O-])cc1)C(Cl)(Cl)Cl)c1cccc(Cl)c1 (stereo not drawn) :: 0
CN(C)CCOc1ccc(-c2cc(-c3ccncc3)c(-c3ccc(Cl)c(O)c3)[nH]2)cc1.Cl :: 25
CC(C)(C)N1CCC(N(Cc2ccc(-c3ccc(C(F)(F)F)cc3)cc2)C(=O)Cn2c(CCc3cccc(F)c3F)cc(=O)c3cccnc32)CC1.O=C(O)C(O)C(O)C(=O)O :: 100
COc1ccc(-c2cccc(NC(=O)c3cccs3)c2)cc1CN1CCCN(C)CC1.O=C(O)C(F)(F)F :: 17

Here is the next item to consider.
stdin: Recorded Inhibition for CCCCCCCN1CC[C@@H](CCC(O)c2ccnc3ccc(OC)cc23)[C@@H](CC)C1 (stereo partly drawn) , please?
stdout: 34
